Molecular target: ALK tyrosine kinase receptor (Homo sapiens, UniProt Q9UM73)
Sequence (Q9UM73 whole entry): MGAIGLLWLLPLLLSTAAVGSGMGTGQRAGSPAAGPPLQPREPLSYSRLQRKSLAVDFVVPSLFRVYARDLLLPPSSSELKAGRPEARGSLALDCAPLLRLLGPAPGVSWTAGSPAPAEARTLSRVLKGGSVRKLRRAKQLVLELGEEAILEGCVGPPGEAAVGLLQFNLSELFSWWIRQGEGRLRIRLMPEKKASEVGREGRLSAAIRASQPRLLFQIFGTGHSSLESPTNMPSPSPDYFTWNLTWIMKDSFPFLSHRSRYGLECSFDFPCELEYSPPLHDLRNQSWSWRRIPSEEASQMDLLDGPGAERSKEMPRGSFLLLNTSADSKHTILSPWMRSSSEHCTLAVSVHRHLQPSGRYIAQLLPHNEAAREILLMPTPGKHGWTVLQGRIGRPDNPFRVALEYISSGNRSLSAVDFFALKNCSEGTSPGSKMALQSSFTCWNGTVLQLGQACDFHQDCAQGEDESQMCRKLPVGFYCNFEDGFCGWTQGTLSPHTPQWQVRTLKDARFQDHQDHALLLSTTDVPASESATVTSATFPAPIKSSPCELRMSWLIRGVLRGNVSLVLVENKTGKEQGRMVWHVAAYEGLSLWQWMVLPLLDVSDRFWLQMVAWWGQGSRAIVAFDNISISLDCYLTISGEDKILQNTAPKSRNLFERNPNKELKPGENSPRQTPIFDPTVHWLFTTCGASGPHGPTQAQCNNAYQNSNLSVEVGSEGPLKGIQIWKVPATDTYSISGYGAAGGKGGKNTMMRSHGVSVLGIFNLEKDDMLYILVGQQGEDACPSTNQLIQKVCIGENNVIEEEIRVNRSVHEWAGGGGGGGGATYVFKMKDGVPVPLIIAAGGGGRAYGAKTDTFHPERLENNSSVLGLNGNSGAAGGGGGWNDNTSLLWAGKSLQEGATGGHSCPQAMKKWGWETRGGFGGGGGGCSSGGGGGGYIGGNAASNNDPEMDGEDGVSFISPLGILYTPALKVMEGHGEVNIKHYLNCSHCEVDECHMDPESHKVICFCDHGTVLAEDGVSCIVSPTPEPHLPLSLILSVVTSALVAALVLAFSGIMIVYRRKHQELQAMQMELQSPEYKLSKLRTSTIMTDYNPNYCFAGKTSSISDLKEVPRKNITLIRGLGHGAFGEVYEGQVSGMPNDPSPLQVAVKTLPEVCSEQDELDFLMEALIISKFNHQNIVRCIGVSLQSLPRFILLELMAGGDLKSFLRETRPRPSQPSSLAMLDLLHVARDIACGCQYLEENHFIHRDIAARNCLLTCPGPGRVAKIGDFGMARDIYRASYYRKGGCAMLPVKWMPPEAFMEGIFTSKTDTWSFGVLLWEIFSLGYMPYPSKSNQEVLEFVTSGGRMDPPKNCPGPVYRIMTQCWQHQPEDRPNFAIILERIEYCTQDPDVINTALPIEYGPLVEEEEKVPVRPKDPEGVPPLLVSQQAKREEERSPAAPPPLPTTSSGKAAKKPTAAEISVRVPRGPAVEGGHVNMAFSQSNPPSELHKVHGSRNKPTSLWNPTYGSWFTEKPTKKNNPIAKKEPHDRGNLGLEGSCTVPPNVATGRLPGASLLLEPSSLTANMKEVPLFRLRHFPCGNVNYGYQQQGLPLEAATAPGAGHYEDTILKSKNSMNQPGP
Test: Inhibition of human ALK (unknown origin) using poly[Glu:Tyr] as substrate by nanoliter kinase assay
pIC50: −log10 of the molar value.
ENDPOINT_NAME: pIC50

Value of pIC50 reported for the compound C[C@@H](Oc1cc(-c2ccc3c(c2)NC(=O)C32CCN(C)CC2)cnc1N)c1c(Cl)ccc(F)c1Cl is > 9.30

====

Experiment: AUC (0 to infinity) in BALB/c mouse at 20 mg/kg, po
Type: ADME, organism-based
Set-up: time infinity, dose 20 mg/kg, route oral
Details: plasma
ENDPOINT_NAME: AUC(0-inf) (ng·h/mL)
Write the value in ng·h/mL as a bare number.

Noted for C[C@@H](Oc1cc(-c2ccc3c(c2)NC(=O)C32CCN(C)CC2)cnc1N)c1c(Cl)ccc(F)c1Cl : its AUC(0-inf) reads 2350
